The measured values listed here are drawn from patent US20210139581A1.

For each of the binders below, state its Receptor downregulation (EC50).
# tested.on: human CD33 on primary human monocyte-derived dendritic cells (human, UniProt P20138 18-364)
# Sequence (P20138 18-364): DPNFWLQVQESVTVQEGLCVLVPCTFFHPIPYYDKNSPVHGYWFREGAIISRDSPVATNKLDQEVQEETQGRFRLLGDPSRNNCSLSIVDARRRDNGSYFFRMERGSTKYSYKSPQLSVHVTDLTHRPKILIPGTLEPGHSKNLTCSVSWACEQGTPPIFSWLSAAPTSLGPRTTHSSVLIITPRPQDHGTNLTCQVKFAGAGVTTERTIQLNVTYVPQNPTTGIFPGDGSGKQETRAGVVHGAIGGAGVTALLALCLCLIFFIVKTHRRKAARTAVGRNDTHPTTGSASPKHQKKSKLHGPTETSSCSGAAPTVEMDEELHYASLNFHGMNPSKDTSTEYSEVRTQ
# protocol.summary: cell-based or functional assay
Numbers only, in nM.

Q: Give recorded Receptor downregulation (EC50). AB-63.4 (antibody, V domains shown) VH: QVQLVQSGAEVKKPGASVKVSCKASGYTFTDYNYHWVRQAPGQGLEWIGFIYPSNGITGYAQKFQGRVTMTVDTSTSTVYMELSSLRSEDTAVYYCARSTVDYFDYWGQGTLVTVSS VL: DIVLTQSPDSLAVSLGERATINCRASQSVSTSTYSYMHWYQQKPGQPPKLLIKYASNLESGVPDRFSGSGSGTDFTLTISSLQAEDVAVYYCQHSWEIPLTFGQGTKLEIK
Result: 0.0691

Q: Give recorded Receptor downregulation (EC50). AB-63.5 (antibody, V domains shown) VH: QVQLVQSGAEVKKPGASVKVSCKASGYTFTDYNNHWVRQAPGQGLEWIGFIYPSNGITGYAQKFQGRVTMTVDTSTSTVYMELSSLRSEDTAVYYCARSDVDYFDYWGQGTLVTVSS VL: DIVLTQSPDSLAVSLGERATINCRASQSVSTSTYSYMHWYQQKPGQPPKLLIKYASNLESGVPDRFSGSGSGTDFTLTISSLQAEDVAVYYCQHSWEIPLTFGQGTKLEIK
Result: 0.0401

Okay, now this binder:
Q: Give recorded Receptor downregulation (EC50). AB-63.15 (antibody, V domains shown) VH: QVQLVQSGAEVKKPGASVKVSCKASGYTFTDYNYHWVRQAPGQGLEWIGFIYPSNGITGYAQKFQGRVTMTVDTSTSTVYMELSSLRSEDTAVYYCARSDVDYFDLWGQGTLVTVSS VL: DIVLTQSPDSLAVSLGERATINCRASQDVSTSTYSYMHWYQQKPGQPPKLLIKYASNVESGVPDRFSGSGSGTDFTLTISSLQAEDVAVYYCQHSWEIPLTFGQGTKLEIE
Result: 0.0476
